Task for the reader: assign each of the following molecules its reported Chemoautotrophic RubisCO activity.
Test system: RubisCO
Format: cell-based, Ralstonia eutropha
Settings: Table 12, chemoautotrophic (induced) growth

Returns the measured Chemoautotrophic RubisCO activity for the input molecule. Input: G205D/R283H (protein) MSSFLRALTLRQLQIFVTVARHASFVRAAEELHLTQPAVSMQVKQLESVVGMALFERVKGQLTLTEPGDRLLHHASRILGEVKDAEEGLQAVKDVEQGSITIGLISTSKYFAPKLLAGFTALHPGVDLRIAEGNRETLLRLLQDNAIDLALMGRPPRELDAVSEPIAAHPHVLVASPRHPLHDAKGFDLQELRHETFLLREPGSDTRTVAEYMFRDHLFTPAKVITLGSNETIKQAVMAGMGISLLSLHTLGLELRTGEIGLLDVAGTPIERIWHVAHMSSKHLSPASESCRAYLLEHTAEFLGREYGGLMPGRRVA
115 nmol/min/mg of protein

Quick check: Chemoautotrophic RubisCO activity of E87K/G242S (protein) MSSFLRALTLRQLQIFVTVARHASFVRAAEELHLTQPAVSMQVKQLESVVGMALFERVKGQLTLTEPGDRLLHHASRILGEVKDAEKGLQAVKDVEQGSITIGLISTSKYFAPKLLAGFTALHPGVDLRIAEGNRETLLRLLQDNAIDLALMGRPPRELDAVSEPIAAHPHVLVASPRHPLHDAKGFDLQELRHETFLLREPGSGTRTVAEYMFRDHLFTPAKVITLGSNETIKQAVMAGMSISLLSLHTLGLELRTGEIGLLDVAGTPIERIWHVAHMSSKRLSPASESCRAYLLEHTAEFLGREYGGLMPGRRVA ?
198 nmol/min/mg of protein

Need Chemoautotrophic RubisCO activity of P269S/T299I (protein) MSSFLRALTLRQLQIFVTVARHASFVRAAEELHLTQPAVSMQVKQLESVVGMALFERVKGQLTLTEPGDRLLHHASRILGEVKDAEEGLQAVKDVEQGSITIGLISTSKYFAPKLLAGFTALHPGVDLRIAEGNRETLLRLLQDNAIDLALMGRPPRELDAVSEPIAAHPHVLVASPRHPLHDAKGFDLQELRHETFLLREPGSGTRTVAEYMFRDHLFTPAKVITLGSNETIKQAVMAGMGISLLSLHTLGLELRTGEIGLLDVAGTSIERIWHVAHMSSKRLSPASESCRAYLLEHIAEFLGREYGGLMPGRRVA , thanks.
158 nmol/min/mg of protein

I am curious: what Chemoautotrophic RubisCO activity value has been reported for A167V (protein) MSSFLRALTLRQLQIFVTVARHASFVRAAEELHLTQPAVSMQVKQLESVVGMALFERVKGQLTLTEPGDRLLHHASRILGEVKDAEEGLQAVKDVEQGSITIGLISTSKYFAPKLLAGFTALHPGVDLRIAEGNRETLLRLLQDNAIDLALMGRPPRELDAVSEPIVAHPHVLVASPRHPLHDAKGFDLQELRHETFLLREPGSGTRTVAEYMFRDHLFTPAKVITLGSNETIKQAVMAGMGISLLSLHTLGLELRTGEIGLLDVAGTPIERIWHVAHMSSKRLSPASESCRAYLLEHTAEFLGREYGGLMPGRRVA ?
370 nmol/min/mg of protein
